Molecular target: Thyrotropin-releasing hormone receptor (Homo sapiens)
Experiment: qHTS for Small Molecule Agonists and Allosteric Enhancers of Human TRH Receptor: Primary Screen for Enhancers; also: 0% is about no effect
Conditions: TRHR cells, fluo-8 calcium fluorescence, EC20 TRH enhancement; at 2 µM; stronger effect = higher value
The whole screen tested about 360,000 compounds, of which about 2,400 (0.67%) were called active. The sample holds actives, similar compounds and a random draw of the others, so the mix is not that of the screen.
Parameter: enhancement. Scope: all listed entries.

{"Compound": "Cn1c(=O)c2c(SCC(=O)NCC3CCCO3)nc(-c3ccccc3F)nc2n(C)c1=O (configuration not stated)", "Test System": "Thyrotropin-releasing hormone receptor (Homo sapiens)", "enhancement / %": -1.86}
{"Compound": "Cc1cc2c(s1)c1cnn(Cc3c(F)cccc3Cl)c(=O)c1n2C", "Test System": "Thyrotropin-releasing hormone receptor (Homo sapiens)", "enhancement / %": 10.5}
{"Compound": "Cc1ccc(CN2CCc3nc(N4CCN(C)CC4)ncc3C2)cc1", "Test System": "Thyrotropin-releasing hormone receptor (Homo sapiens)", "enhancement / %": -1.43}
{"Compound": "CCC(=O)N1c2ccccc2CC1C(=O)N1CCN(c2ccccc2)CC1 (configuration not stated)", "Test System": "Thyrotropin-releasing hormone receptor (Homo sapiens)", "enhancement / %": -2.98}
{"Compound": "CCOC(=O)c1sc(NC(=O)/C=C/c2ccc(C(C)C)cc2)c(C(=O)OCC)c1C", "Test System": "Thyrotropin-releasing hormone receptor (Homo sapiens)", "enhancement / %": 0.66}
{"Compound": "CCOC(=O)c1nn(-c2cccc(C)c2)cc1C(=O)c1ccccc1", "Test System": "Thyrotropin-releasing hormone receptor (Homo sapiens)", "enhancement / %": 11}
{"Compound": "O=C(Cc1ccccc1)Nc1sc2c(c1C(=O)Nc1ccc(Br)cc1)CCC2", "Test System": "Thyrotropin-releasing hormone receptor (Homo sapiens)", "enhancement / %": 1}
{"Compound": "COc1ccc2c(c1)Cc1sc(NC(=O)c3ccccc3Br)nc1-2", "Test System": "Thyrotropin-releasing hormone receptor (Homo sapiens)", "enhancement / %": 4.8}
{"Compound": "CC(C)(C)OC(=O)N1CCC(c2c(C(=O)NCc3ccccn3)cnn2-c2ccc(F)cc2)CC1", "Test System": "Thyrotropin-releasing hormone receptor (Homo sapiens)", "enhancement / %": 0.916}
{"Compound": "Cc1cc2c(s1)c1cnn(Cc3cc(F)c(Cl)cc3Cl)c(=O)c1n2C", "Test System": "Thyrotropin-releasing hormone receptor (Homo sapiens)", "enhancement / %": -6.51}
{"Compound": "CN(C)S(=O)(=O)c1ccc(C(=O)N(Cc2cccnc2)c2nc3c(F)cc(F)cc3s2)cc1", "Test System": "Thyrotropin-releasing hormone receptor (Homo sapiens)", "enhancement / %": -9.57}
{"Compound": "CC(C)C[C@H](NC(=O)NCCc1ccc(Cl)cc1)C(=O)O", "Test System": "Thyrotropin-releasing hormone receptor (Homo sapiens)", "enhancement / %": -5.99}
{"Compound": "CC(Sc1nnc(CNC(=O)c2ccccc2F)n1C)C(=O)Nc1nccs1 (configuration not stated)", "Test System": "Thyrotropin-releasing hormone receptor (Homo sapiens)", "enhancement / %": -1.71}
{"Compound": "Cc1c(C(=O)Nc2cccc(Cl)c2)oc2ccc(S(=O)(=O)N3CCOCC3)cc12", "Test System": "Thyrotropin-releasing hormone receptor (Homo sapiens)", "enhancement / %": -6.24}
{"Compound": "CC(C)C1Nc2c(C(=O)O)cccc2C(Nc2ccccc2C(=O)O)C1(C)C (configuration not stated)", "Test System": "Thyrotropin-releasing hormone receptor (Homo sapiens)", "enhancement / %": 30.3}
{"Compound": "Cc1ccc(Cl)c(OCC(=O)N2CCc3ccccc3C2)c1", "Test System": "Thyrotropin-releasing hormone receptor (Homo sapiens)", "enhancement / %": 61.4}
{"Compound": "O=C(c1ccccn1)c1ncc(C(F)(F)F)cc1Cl", "Test System": "Thyrotropin-releasing hormone receptor (Homo sapiens)", "enhancement / %": 1.39}
{"Compound": "Cc1c(C(=O)NCc2ccccc2Br)oc2ccc3c(c12)C(=O)CC(C)(C)O3", "Test System": "Thyrotropin-releasing hormone receptor (Homo sapiens)", "enhancement / %": -2.29}
{"Compound": "N#Cc1ccc(Oc2cc(C(F)(F)F)nc(-c3ccccn3)n2)cc1", "Test System": "Thyrotropin-releasing hormone receptor (Homo sapiens)", "enhancement / %": 55.8}
{"Compound": "COc1ccc(Nc2ncc3c(n2)CCN(C(=O)OC(C)(C)C)C3)cc1", "Test System": "Thyrotropin-releasing hormone receptor (Homo sapiens)", "enhancement / %": 2.63}
{"Compound": "Cc1ccc(C(=O)Nc2ccc(OCc3cc(=O)n4c5c(sc4n3)CCCC5)cc2)cc1", "Test System": "Thyrotropin-releasing hormone receptor (Homo sapiens)", "enhancement / %": -8.75}
{"Compound": "N#Cc1ncc(C(F)(F)F)cc1Oc1cccnc1", "Test System": "Thyrotropin-releasing hormone receptor (Homo sapiens)", "enhancement / %": -3.06}
{"Compound": "CCOC(=O)C1CCC(CN(Cc2ccc(OC)cc2)S(=O)(=O)c2ccc(F)c(C(=O)Nc3cc(C)ccc3C)c2)CC1 (configuration not stated)", "Test System": "Thyrotropin-releasing hormone receptor (Homo sapiens)", "enhancement / %": -3.18}
{"Compound": "CCOc1ccc(Nc2ncnc3scc(-c4ccc(OC)cc4)c23)cc1", "Test System": "Thyrotropin-releasing hormone receptor (Homo sapiens)", "enhancement / %": -0.508}
{"Compound": "O=C(CNC(=O)c1ccccc1)OC(C(=O)Nc1cc([N+](=O)[O-])ccc1F)c1ccccc1 (configuration not stated)", "Test System": "Thyrotropin-releasing hormone receptor (Homo sapiens)", "enhancement / %": -0.946}
{"Compound": "CCOC(=O)C1=C(O)/C(=C/c2cc(C)n(-c3ccccc3)c2C)N=C1C", "Test System": "Thyrotropin-releasing hormone receptor (Homo sapiens)", "enhancement / %": 43.5}
{"Compound": "COc1ccc2c(CNCCc3ccccc3C)c(C(=O)O)n(Cc3ccccc3C)c2c1", "Test System": "Thyrotropin-releasing hormone receptor (Homo sapiens)", "enhancement / %": -16.3}
{"Compound": "CCOC(=O)C1=C(O)/C(=C/c2ccc(OCC(=O)Nc3ccc(C)cc3)cc2)N=C1C", "Test System": "Thyrotropin-releasing hormone receptor (Homo sapiens)", "enhancement / %": -0.756}
{"Compound": "COc1ccc(NC(=O)c2sc3nc(-c4cc5cccc(OC)c5oc4=O)[nH]c(=O)c3c2C)cc1", "Test System": "Thyrotropin-releasing hormone receptor (Homo sapiens)", "enhancement / %": 8.15}
{"Compound": "O=C(C1Cc2ccccc2CN1C(=O)c1ccco1)N1CCN(c2ccccc2)CC1 (configuration not stated)", "Test System": "Thyrotropin-releasing hormone receptor (Homo sapiens)", "enhancement / %": 36}
{"Compound": "Cc1ccc(C(=O)Nc2ccc(OCc3cc(=O)n4c(C)csc4n3)cc2)cc1", "Test System": "Thyrotropin-releasing hormone receptor (Homo sapiens)", "enhancement / %": 44.4}
{"Compound": "COc1cc2c(cc1OC)C(COc1ccc(F)cc1)N(C(=O)c1ccccc1F)CC2 (configuration not stated)", "Test System": "Thyrotropin-releasing hormone receptor (Homo sapiens)", "enhancement / %": -0.875}
{"Compound": "Cc1csc2nc(COc3ccc(NC(=O)COc4ccccc4)cc3)cc(=O)n12", "Test System": "Thyrotropin-releasing hormone receptor (Homo sapiens)", "enhancement / %": -0.546}
{"Compound": "CCOc1ccc(NC(=O)C2CCN(S(=O)(=O)c3cc(-c4noc(C)n4)ccc3C)CC2)cc1", "Test System": "Thyrotropin-releasing hormone receptor (Homo sapiens)", "enhancement / %": 0.0598}
{"Compound": "COc1cccc(-c2cc(C(=O)Nc3ccc(C)cc3)[nH]n2)c1", "Test System": "Thyrotropin-releasing hormone receptor (Homo sapiens)", "enhancement / %": -0.168}
{"Compound": "Cc1cc2nc(-c3ccc(NC(=O)c4cc5ccccc5o4)cc3)oc2cc1C", "Test System": "Thyrotropin-releasing hormone receptor (Homo sapiens)", "enhancement / %": -7.25}
{"Compound": "CCCC(=O)Nc1cc2nn(-c3ccccc3)nc2cc1C", "Test System": "Thyrotropin-releasing hormone receptor (Homo sapiens)", "enhancement / %": -3.06}
{"Compound": "CCc1ccc(-n2nc(C)c3c(C)cc(=O)n(CC(=O)Nc4ccc(F)cc4C)c32)cc1", "Test System": "Thyrotropin-releasing hormone receptor (Homo sapiens)", "enhancement / %": 6.58}
{"Compound": "O=c1[nH]c2cccnc2n(CCNc2ncc(C(F)(F)F)cc2Cl)c1=O", "Test System": "Thyrotropin-releasing hormone receptor (Homo sapiens)", "enhancement / %": 48.4}
{"Compound": "COc1cc(NC(=O)c2noc3c2CSc2ccccc2-3)cc(OC)c1OC", "Test System": "Thyrotropin-releasing hormone receptor (Homo sapiens)", "enhancement / %": 4.94}
{"Compound": "O=C(NCc1ccccn1)C1CCN(S(=O)(=O)c2ccc(Br)cc2)CC1", "Test System": "Thyrotropin-releasing hormone receptor (Homo sapiens)", "enhancement / %": -2.72}
{"Compound": "O=C(NCCc1ccccc1)C1CC1", "Test System": "Thyrotropin-releasing hormone receptor (Homo sapiens)", "enhancement / %": -3.66}

// data source = PubChem BioAssay AID493056
